System: Cryptococcus neoformans
Details: Concentration 32 ug.mL-1; ASSAY_TEST Inhibition of Fungal Growth; detection method Resazurin; Absorption (OD600-OD570); plate type 384well; NBS; CORNING #3640
Description: Antifungal activity against Cryptococcus neoformans H99 ATCC 208821 (CO-ADD:FG_002); MIC in YNB media using NBS plates, by Resazurin OD(600-570)
Entries with a potency or affinity are not part of this list.
Hi there, I'd appreciate the recorded Inhibition for every entry that follows.
# unit: % | format: bare number

**Query** State the recorded Inhibition for this entry: `N#Cc1cc(C#N)c(NCCCCC2CCN(Cc3ccccc3)CC2)nc1N`
**Result** -105.28

**Query** State the recorded Inhibition for this entry: `C#CCNc1ncccn1`
**Result** -63.47

**Query** State the recorded Inhibition for this entry: N#CC1=C(N)Oc2c(ccc3ccccc23)C1c1cccc([N+](=O)[O-])c1 (stereo not drawn)
**Result** -36.01

**Query** State the recorded Inhibition for this entry: COC(=O)C1(NC(=O)c2ccccc2)CC1c1ccccc1 (stereo not drawn)
**Result** -1.1

**Query** State the recorded Inhibition for this entry: `N#Cc1cc2c(N)c3c(nc2nc1N1CCCCC1)CCCC3`
**Result** -98.63

**Query** State the recorded Inhibition for this entry: `N#Cc1ccc(Br)cc1N`
**Result** -4.02

**Query** State the recorded Inhibition for this entry: `C=C1CN(C)c2c(C#N)c(-c3ccccc3)c(C#N)c(=N)n21`
**Result** -51.34

**Query** State the recorded Inhibition for this entry: `N#Cc1c(N)nc(NCc2ccccc2)c(C#N)c1-c1ccccc1`
**Result** -28.27

**Query** State the recorded Inhibition for this entry: `Cn1c(C(=O)O)cc2ccccc21`
**Result** 5.37

**Query** State the recorded Inhibition for this entry: `C#CCNc1nc(N)c(C#N)cc1C#N`
**Result** -24.9

**Query** State the recorded Inhibition for this entry: `N#Cc1cccnc1N`
**Result** -34.57

**Query** State the recorded Inhibition for this entry: `N#Cc1cccnc1Cl`
**Result** -53.41

**Query** State the recorded Inhibition for this entry: `O=C1OC(c2ccc([N+](=O)[O-])cc2)=NC1=Cc1ccccc1`
**Result** -5.52

* * *

Tested on: Cryptococcus neoformans
Details: Concentration 32 ug.mL-1; ASSAY_TEST Inhibition of Fungal Growth; detection method Resazurin; Absorption (OD600-OD570); plate type 384well; NBS; CORNING #3640
Results with a measured potency or affinity are listed apart.
Recorded Endpoint: Inhibition (%)
# unit: % | format: bare number

**Query** State the recorded Inhibition for this entry: `CCOC(=O)N/N=C/c1ccccc1`
**Result** -5.96

**Query** State the recorded Inhibition for this entry: `CCOC(=O)c1c(C)nc(N)c(C#N)c1-c1cccs1`
**Result** -31.89

**Query** State the recorded Inhibition for this entry: CCOC(=O)C1=C(C)NC(N)=C(C#N)C1c1ccc([N+](=O)[O-])cc1 (stereo not drawn)
**Result** -47.11

**Query** State the recorded Inhibition for this entry: Cc1ccc(C(O)SNNc2ncnc3c2c(C)nn3-c2ccccc2)cc1 (stereo not drawn)
**Result** -5.03

**Query** State the recorded Inhibition for this entry: `O=C(NCc1ccccc1)c1cc2ccccc2[nH]1`
**Result** -6.86

**Query** State the recorded Inhibition for this entry: `CC(C)(C)OC(=O)Nc1ccc(Br)cn1`
**Result** -55.05

**Query** State the recorded Inhibition for this entry: `C#CCN(C)Cc1cc2cc(OCCCC3CCN(Cc4ccc(OC)c5ncccc45)CC3)ccc2n1C`
**Result** -73.89

**Query** State the recorded Inhibition for this entry: N#CC1=C(Cl)Oc2c(ccc3ccccc23)C1c1ccccc1[N+](=O)[O-] (stereo not drawn)
**Result** -51.56

**Query** State the recorded Inhibition for this entry: `CC(C)NNC(=O)Cc1c[nH]c2ccccc12`
**Result** -1.92

**Query** State the recorded Inhibition for this entry: CCCC(C)NNC(=O)c1cc2ccccc2[nH]1 (stereo not drawn)
**Result** -3.77

**Query** State the recorded Inhibition for this entry: N#CC1=C(N)Oc2c(ccc3ccccc23)C1c1ccc(Cl)c(Cl)c1 (stereo not drawn)
**Result** -2.77

**Query** State the recorded Inhibition for this entry: CCOC(=O)C1=C(C)OC(N)=C(C#N)C1c1ccc(OC)cc1 (stereo not drawn)
**Result** -5.46

**Query** State the recorded Inhibition for this entry: `CCC(CC)NNC(=O)c1cc2ccccc2n1C`
**Result** -1.5

**Query** State the recorded Inhibition for this entry: `COc1nc(N)c(C#N)c(-c2ccccc2)c1C#N`
**Result** -13.41

**Query** State the recorded Inhibition for this entry: `Nc1c2c(nc3c1c1ccccc1n3Cc1ccccc1)CCCC2`
**Result** -84.21

**Query** State the recorded Inhibition for this entry: `CC1(C)OC(=O)C(=Cc2ccc([N+](=O)[O-])cc2)C(=O)O1`
**Result** -6.06

**Query** State the recorded Inhibition for this entry: Cc1ccc(C2c3c(nc4c(c3N)CCCC4)Oc3ccc4ccccc4c32)cc1 (stereo not drawn)
**Result** 2.32

**Query** State the recorded Inhibition for this entry: `N#Cc1cc(C#N)c(Cl)nc1N`
**Result** -5.53

**Query** State the recorded Inhibition for this entry: `O=C(NNCCc1ccccc1)c1cc2ccccc2[nH]1`
**Result** -3.77

**Query** State the recorded Inhibition for this entry: `C#CCNc1nc(N)c(C#N)c(-c2ccccc2)c1C#N`
**Result** -2.34

**Query** State the recorded Inhibition for this entry: CCOC(=O)C1=C(C)OC(N)=C(C#N)C1c1ccccc1OC (stereo not drawn)
**Result** -0.68

**Query** State the recorded Inhibition for this entry: `C#CCN(C)c1nc(NCCCC2CCN(Cc3ccccc3)CC2)c(C#N)cc1C#N`
**Result** -58.85

**Query** State the recorded Inhibition for this entry: `C#CCN(C)c1cc(C)nc(C)n1`
**Result** -42.1

**Query** State the recorded Inhibition for this entry: `O=C(Cc1c[nH]c2ccccc12)N/N=C/c1ccco1`
**Result** -6.47

**Query** State the recorded Inhibition for this entry: `C=CCNc1[nH]c2ccc(O)cc2c1C#N`
**Result** -48.34

**Query** State the recorded Inhibition for this entry: `CCOc1nc2nc(C)c(C=C3CCN(Cc4ccccc4)CC3)cc2c(-c2ccccc2)c1C#N`
**Result** -63.91

**Query** State the recorded Inhibition for this entry: `C=C1CN(C)c2c(C#N)c(-c3ccccc3)c(C#N)c(=O)n21`
**Result** -24.16

**Query** State the recorded Inhibition for this entry: `O=C(N/N=C/c1ccc(Cl)cc1)c1cc2ccccc2[nH]1`
**Result** -0.9

**Query** State the recorded Inhibition for this entry: `Cc1ccc(-c2c(C#N)c(N)nc3c2S(=O)(=O)OC3(C)C)cc1`
**Result** -1.83

**Query** State the recorded Inhibition for this entry: COc1ccc(C2C(C#N)=C(Cl)Oc3c2ccc2ccccc32)cc1OC (stereo not drawn)
**Result** -55.36

**Query** State the recorded Inhibition for this entry: `O=C(Cc1c[nH]c2ccccc12)NN=C1CCCCCC1`
**Result** -2.54

**Query** State the recorded Inhibition for this entry: `C/C(Cc1ccccc1)=N\NC(=O)c1c[nH]c2ccccc12`
**Result** 2.61

**Query** State the recorded Inhibition for this entry: Cc1[nH]nc2c1C(c1cccc([N+](=O)[O-])c1)C(C#N)=C(N)O2 (stereo not drawn)
**Result** -0.61

**Query** State the recorded Inhibition for this entry: CCOC(=O)C1=C(C)OC(N)=C(C#N)C1c1ccco1 (stereo not drawn)
**Result** -29.39

**Query** State the recorded Inhibition for this entry: `N#C[C@]1(Br)C(=N)Oc2ccc3ccccc3c2[C@@H]1c1ccc([N+](=O)[O-])cc1`
**Result** -3.1

**Query** State the recorded Inhibition for this entry: `N#Cc1cc(C#N)c(N2CCC(O)CC2)nc1N`
**Result** -52.44

**Query** State the recorded Inhibition for this entry: `CSC1=NC(=Cc2cn(C)c3ccccc23)C(=O)N1C`
**Result** -7.7

**Query** State the recorded Inhibition for this entry: Cn1ccnc1C1c2ccc3cccnc3c2Oc2nc3c(c(N)c21)CCC3 (stereo not drawn)
**Result** -104.91

**Query** State the recorded Inhibition for this entry: `COC(=O)C(=Cc1ccc(OC)cc1)NC(=O)c1ccccc1`
**Result** -1.73

**Query** State the recorded Inhibition for this entry: `COc1cccc(C=C2N=C(c3ccccc3)OC2=O)c1OC(C)=O`
**Result** -5.03

**Query** State the recorded Inhibition for this entry: `O=C1OC(c2ccccc2)=NC1=Cc1ccc(Cl)cc1`
**Result** -3.18

**Query** State the recorded Inhibition for this entry: Nc1c2c(nc3c1C(c1ccc(Cl)c(Cl)c1)c1ccc4ccccc4c1O3)CCCC2 (stereo not drawn)
**Result** -2.87

**Query** State the recorded Inhibition for this entry: `O=Cc1cc2ccccc2nc1Cl`
**Result** -7.31

**Query** State the recorded Inhibition for this entry: `O=C(N/N=C/c1c[nH]c2ccccc12)C(c1ccccc1)c1ccccc1`
**Result** -1.94

**Query** State the recorded Inhibition for this entry: `c1ccc(COc2ccc3[nH]ccc3c2)cc1`
**Result** -1.93

**Query** State the recorded Inhibition for this entry: `Cl.ClCCCN1CCCC1`
**Result** -0.84

**Query** State the recorded Inhibition for this entry: `C=C1CN(C)c2c(C#N)cc(C#N)c(=S)n21`
**Result** -13.76

**Query** State the recorded Inhibition for this entry: `COC(=O)C(=Cc1ccc(OC)cc1)NC(C)=O`
**Result** -2.55
